# Tested on: Clostridium sporogenes DSM 1664
# PROCEDURE_TEXT: growth (OD595) fold change vs plate DMSO controls (fold change (ratio)); higher = more growth
# REPORTED_CONDITIONS: incubation time: 27 h, anaerobic, 37 °C
Counter-ions that a name gives are not always drawn.
Recorded growth, one value per entry.
RESULT_TYPE: growth

COMPOUND	TEST_RESULT
N=C(N)NCC1COC2(CCCCC2)O1 (stereo unspecified) [Guanadrel sulfate] (20 µM)	0.98
CN(C)CCOC(c1ccccc1)c1ccccc1 [Diphenhydramine hydrochloride] (20 µM)	0.881
C[C@H](CC[C@@H](O[C@@H]1O[C@H](CO[C@@H]2O[C@H](CO)[C@@H](O)[C@H](O)[C@H]2O)[C@@H](O)[C@H](O)[C@H]1O[C@@H]1O[C@H](CO)[C@@H](O)[C@H](O)[C@H]1O)C(C)(C)O)[C@H]1CC[C@@]2(C)[C@@H]3CC=C4[C@@H](CC[C@H](O[C@@H]5O[C@H](CO[C@@H]6O[C@H](CO)[C@@H](O)[C@H](O)[C@H]6O)[C@@H](O)[C@H](O)[C@H]5O)C4(C)C)[C@]3(C)[C@H](O)C[C@]12C [Mogroside V] (50 µM)	0.958
NC(=O)N/N=C/c1ccc([N+](=O)[O-])o1 [Nitrofural] (20 µM)	1.07
CC(=O)Nc1ccc(OCC(O)CNC(C)C)cc1 (stereo unspecified) [Practolol] (20 µM)	0.924
CC(C)Cc1ccc(CC(=O)O)cc1 [Ibufenac] (20 µM)	1.08
